The measured values listed here are drawn from patent US8551984B2.

Target: recombinant human SYK (GST-hSYK fusion protein) (Homo sapiens, UniProt P43405)
Assay: biochemical
Conditions: rhSYK Activity, table after Example 69
pIC50: −log10 of the molar value.
Readout kind: pIC50

Reported pIC50 ( Cc1cc(Nc2nccc(C(=O)N3CCOCC3)n2)cc(-c2cnc(C(C)(O)C(F)(F)F)s2)c1 (stereo not shown) ) = 6.00 to 7.00

###

Target: recombinant human SYK (GST-hSYK fusion protein) (Homo sapiens)
Assay: biochemical
Conditions: rhSYK Activity (IC50), recombinant human GST-SYK 5 pM, ATP 25 μM, biotinylated substrate peptide 250 nM, HTRF, 10-dose titration
pIC50: −log10 of the molar value.
Readout kind: pIC50

For orientation, consider the following solved cases.
Compound	pIC50
Cc1cc(Nc2nccc(OC3CCC(OCc4ccccc4)CC3)n2)cc(-c2cnc(C(C)(O)C(F)(F)F)s2)c1 (stereo not shown) [Example 94B-3]	6.00 to 7.00
Cc1cc(Nc2nccc(OC3CCCC3)n2)cc(-c2cnc(C3(O)CCC3)s2)c1 [Example 94A-31]	> 7.00
C=C(F)CNCc1ncc(-c2cc(C)cc(Nc3nccc(C(F)(F)F)n3)c2)s1 [Example 88A-8]	> 7.00

// below: pIC50 requested for another compound
Reported pIC50 ( Cc1cc(Nc2nccc(C(F)(F)F)n2)cc(-c2cnc(CN3CCC(C)(O)C3)s2)c1 (stereo not shown) [Example 88B-2] ) = > 7.00
